- system: T1, huMICA*004 alpha 3-his (human)
- T1 construct: whole construct entry: GS, alpha 3 domain, GNS, His8; also called MICA004.His; MICA*004 alpha3 construct
- T1 chain: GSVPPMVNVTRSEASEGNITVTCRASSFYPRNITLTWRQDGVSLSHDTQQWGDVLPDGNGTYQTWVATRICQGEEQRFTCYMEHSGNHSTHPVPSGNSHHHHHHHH
- protocol_text: SPR, Biacore 8K, antibody on Protein A chip
# Kd values compiled below
Record the value in nM, omitting the unit from your answer.

1D5v28 (antibody, IgG1, V domains shown, humanized variant of 1D5) VH: EIQLVQSGAEVKKPGASVKVSCKASGYAFTSQNIYWVRQAPGQGLEWIGYIEPYNVVPLYNPKFKGRATLTVDKSTSTAYLELSSLRSEDTAVYYCARSGSSNFDYWGQGTLVTVSS VL: DIQLTQSPSSLSASVGDRVTITCSASSSISSHYLHWYQQKPGKSPKLLIYRTSNLASGVPSRFSGSGSGTDYTLTISSLQPEDFATYYCQQGSSLPLTFGQGTKVEIK    0.87
1D5v15 (antibody, IgG1, V domains shown, humanized variant of 1D5) VH: EIQLVQSGAEVKKPGASVKVSCKASGYAFTSQNIYWVRQAPGQGLEWIGYIEPYNVVPMYNPKFKGRATLTVDKSTSTAYLELSSLRSEDTAVYYCARSGSSNFDYWGQGTLVTVSS VL: DIQMTQSPSSLSASVGDRVTITCSASSSISSHYLHWYQQKPGKAPKLLIYRTSNLASGVPSRFSGSGSGTDFTLTISSLQPEDFATYYCQQGSSLPLTFGQGTKVEIK    0.81

[in] Give me measured Kd, please, for this binder: 1D5v23 (antibody, IgG1, V domains shown, humanized variant of 1D5) VH: EIQLVQSGAEVKKPGASVKVSCKASGYAFTSQNIYWVRQAPGQGLEWIGYIEPYNVVPMYNPKFKGRATLTVDTSTSTAYLELSSLRSEDTAVYYCARSGSSNFDYWGQGTLVTVSS VL: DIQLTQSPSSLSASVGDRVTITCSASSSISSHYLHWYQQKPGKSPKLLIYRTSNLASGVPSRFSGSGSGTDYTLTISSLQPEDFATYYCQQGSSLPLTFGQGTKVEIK
[out] 0.9
